Target: Solute carrier family 2, facilitated glucose transporter member 1 (Homo sapiens) (UniProt P11166)
Sequence (P11166 whole entry): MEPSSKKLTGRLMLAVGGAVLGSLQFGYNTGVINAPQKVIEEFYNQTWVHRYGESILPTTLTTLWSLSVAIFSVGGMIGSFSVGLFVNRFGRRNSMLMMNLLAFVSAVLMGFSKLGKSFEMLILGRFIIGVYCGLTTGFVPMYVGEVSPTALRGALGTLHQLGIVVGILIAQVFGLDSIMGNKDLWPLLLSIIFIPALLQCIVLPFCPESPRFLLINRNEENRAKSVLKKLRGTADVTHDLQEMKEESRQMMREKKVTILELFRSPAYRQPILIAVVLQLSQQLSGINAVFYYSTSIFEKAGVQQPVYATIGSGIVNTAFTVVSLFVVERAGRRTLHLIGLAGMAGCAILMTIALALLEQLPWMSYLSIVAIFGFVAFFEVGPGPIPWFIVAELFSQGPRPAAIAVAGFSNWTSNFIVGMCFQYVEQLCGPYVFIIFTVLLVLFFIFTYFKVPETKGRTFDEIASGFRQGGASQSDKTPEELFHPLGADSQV
Assay: ST_JUDE_LEISH: Cytotoxicity at 2uM final concentration against transgenic Leishmania Mexicana promastigotes LmGLUT1 that are glucose transport deficient and complemented with the human glucose transporter GLUT1. Activity is measured by DNA content using SYBR green in vitro
Type: functional
Give satisfied when the value for inhibition is at least 3%. Give not satisfied when it is less.

Prompt: Exam item: decide whether the reported inhibition for `O=C1NCN(c2ccc(O)cc2)C12CCN(CCCC(c1ccc(F)cc1)c1ccc(F)cc1)CC2` is at least 3%.
Completion: satisfied

Prompt: Is it the case that CN(C)CCCn1cc(C(=O)OC2CC3CCC(C2)N3C)c2cc(-c3ccccc3)ccc21 (stereo not given) has inhibition reaching or exceeding 3%?
Completion: satisfied

Prompt: Has O=C(CCCCCc1ccccc1)NC1CCC(CN2CCC(c3c[nH]c4ccccc34)CC2)CC1 (stereo not given) a recorded inhibition greater than or equal to 3%?
Completion: not satisfied

Prompt: inhibition >= 3% for `CC[C@H]1CN2CC[C@H]1C[C@H]2[C@H](O)c1ccnc2ccc(O)cc12` ?
Completion: not satisfied

Prompt: Hi, just wondering whether `COc1cccc(CN2CCC(CCOC(c3ccccc3)c3ccccc3)CC2)c1O` shows inhibition of 3% or higher.
Completion: not satisfied

Prompt: Does `O=C(C=Cc1ccccc1O)N1CCC(CN2CCC(c3c[nH]c4ccccc34)CC2)CC1` have a reported inhibition of at least 3%?
Completion: not satisfied

Prompt: Assess whether reported inhibition for `Fc1ccc2[nH]cc(CCN3CCC(CNCc4ccccc4)CC3)c2c1` sits at 3% or higher.
Completion: satisfied

Prompt: Reported inhibition reaches at least 3% for `CCCC(=O)c1c(O)c2ccccc2oc1=O` ?
Completion: satisfied

Prompt: For this molecule, is measured inhibition 3% or higher? `O=C(C=Cc1ccc(F)c(Br)c1)N1CCC(CN2CCC(c3c[nH]c4ccccc34)CC2)CC1`
Completion: satisfied

Prompt: Has CC(Cc1ccc(OCCOc2ccccc2)cc1)NCC(O)c1cccc(C(F)(F)F)c1 (stereo not given) a recorded inhibition greater than or equal to 3%?
Completion: not satisfied

Prompt: Is it the case that O=C(/C=C/c1ccc2ccccc2c1)NC1CCC(CN2CCC(c3c[nH]c4ccccc34)CC2)CC1 (stereo not given) has inhibition reaching or exceeding 3%?
Completion: not satisfied

Prompt: Does the reported inhibition for `CS(=O)(=O)Nc1ccc2[nH]cc(C3CCN(CC4CCN(C(=O)/C=C/c5ccc(Cl)c(Cl)c5)CC4)CC3)c2c1` fall at or above the 3% mark?
Completion: satisfied

Prompt: Has COc1nc(N)ncc1C(=O)NC1CN2CCC1CC2 (stereo not given) a recorded inhibition greater than or equal to 3%?
Completion: satisfied

Prompt: Reported inhibition reaches at least 3% for `CCCCCCCn1c(=O)c(C(=O)Nc2c(C)cccc2C)c(O)c2ccccc21` ?
Completion: not satisfied

Prompt: Textbook exercise: given the entry `O=C(O)c1ccc2nc(-c3ccc(-c4ccccc4)cc3)n(C3CCN(Cc4ccc(-c5ncc[nH]5)cc4)CC3)c2c1` , state whether its inhibition is greater than or equal to 3%.
Completion: satisfied

Prompt: Threshold query (inhibition >= 3%) on Cc1[nH]c2cc(F)ccc2c1C1=CCN(CCCCC2(C)C(=O)Nc3ccccc32)CC1 (stereo not given)
Completion: not satisfied

Prompt: Given the entry `O=C(/C=C/c1ccc(Cl)c(Cl)c1)N1CCC(CN2CCC(c3c[nH]c4cc(C(F)(F)F)ccc34)CC2)CC1` , answer whether its inhibition meets or surpasses 3%.
Completion: not satisfied

Prompt: Could you verify whether the entry `Cc1cc2ccc(CNCCc3ccccc3Br)cc2nc1N` shows inhibition of no less than 3%?
Completion: satisfied

Prompt: Check the entry CNCC(O)c1cc(Cl)c(Cl)cc1C (stereo not given) : does inhibition equal or exceed 3%?
Completion: not satisfied
